Tested on: Escherichia coli
Assay: Inhibition of Escherichia coli FimH-mediated hemagglutinination of guinea pig red blood cells assessed as drug level required for > 90% inhibition of hemagglutinination
Threshold 8 µM: Activity strictly smaller gives TRUE, otherwise FALSE.

# TODO verify Activity < 8 µM strictly for this molecule: NC(=O)c1ccccc1-c1ccc(O[C@H]2O[C@H](CO)[C@@H](O)[C@H](O)[C@@H]2O)cc1
TRUE

Problem: For the molecule CC(=O)Nc1cccc(O[C@H]2O[C@H](CO)[C@@H](O)[C@H](O)[C@@H]2O)c1 , is Activity under 8 µM?
FALSE

Check if Activity falls below 8 µM for O=[N+]([O-])c1ccc(O[C@H]2O[C@H](CO)[C@@H](O)[C@H](O)[C@@H]2O)cc1 .
FALSE

Regarding CNC(=O)c1cc(C(=O)NC)cc(-c2ccc(O[C@H]3O[C@H](CO)[C@@H](O)[C@H](O)[C@@H]3O)cc2)c1 , kindly confirm whether its Activity is beneath 8 µM.
TRUE

A record lists O=c1[nH]c2ccc(O[C@H]3O[C@H](CO)[C@@H](O)[C@H](O)[C@@H]3O)cc2o1 . Is its Activity below 8 µM?
TRUE

Quick check: does N#Cc1cccc(-c2ccc(O[C@H]3O[C@H](CO)[C@@H](O)[C@H](O)[C@@H]3O)cc2)c1 have Activity under 8 µM?
TRUE

Please check: Activity for NC(=O)c1cccc(-c2ccc(O[C@H]3O[C@H](CO)[C@@H](O)[C@H](O)[C@@H]3O)cc2)c1 , strictly under 8 µM or not?
TRUE

Please determine if OCc1ccc(-c2ccc(O[C@H]3O[C@H](CO)[C@@H](O)[C@H](O)[C@@H]3O)cc2)cc1 is below 8 µM in terms of Activity.
TRUE

Given O=C(O)c1cc(C(=O)NCCCCO[C@H]2O[C@H](CO)[C@@H](O)[C@H](O)[C@@H]2O)cc(-c2c3ccc(=O)cc-3oc3cc(O)ccc23)c1 , is recorded Activity strictly lower than 8 µM?
FALSE

Lab log: compare recorded Activity with 8 µM; is it strictly lower for CS(=O)(=O)Nc1cccc(-c2ccc(O[C@H]3O[C@H](CO)[C@@H](O)[C@H](O)[C@@H]3O)cc2)c1 ?
TRUE

# TODO verify Activity < 8 µM strictly for this molecule: O=C(NCCOCCNC(=O)c1cccc(-c2ccc(O[C@H]3O[C@H](CO)[C@@H](O)[C@H](O)[C@@H]3O)cc2)c1)c1cccc(-c2ccc(O[C@H]3O[C@H](CO)[C@@H](O)[C@H](O)[C@@H]3O)cc2)c1
TRUE

Record O=[N+]([O-])c1ccc(-c2ccc(O[C@H]3O[C@H](CO)[C@@H](O)[C@H](O)[C@@H]3O)cc2)cc1 : is its Activity strictly below 8 µM?
TRUE

Threshold test, Activity < 8 µM: O=[N+]([O-])c1cccc(O[C@H]2O[C@H](CO)[C@@H](O)[C@H](O)[C@@H]2O)c1
FALSE

Lab note: Activity threshold 8 µM. Does this molecule come in strictly under it? NC(=O)c1ccc(O[C@H]2O[C@H](CO)[C@@H](O)[C@H](O)[C@@H]2O)cc1
FALSE

Activity strictly < 8 µM for this molecule? NC(=O)c1cccc(O[C@H]2O[C@H](CO)[C@@H](O)[C@H](O)[C@@H]2O)c1
FALSE
